Measured % Positive accompanies every entry in the list below.
Molecular target: T1, human Siglec-7 expressed on human cells (primary monocytes, dendritic cells, macrophages, NK cells, … (human, UniProt Q9Y286 19-467))
T1 construct: Endogenous receptor on cells; also called Siglec-7 receptor
T1 sequence (Q9Y286 19-467): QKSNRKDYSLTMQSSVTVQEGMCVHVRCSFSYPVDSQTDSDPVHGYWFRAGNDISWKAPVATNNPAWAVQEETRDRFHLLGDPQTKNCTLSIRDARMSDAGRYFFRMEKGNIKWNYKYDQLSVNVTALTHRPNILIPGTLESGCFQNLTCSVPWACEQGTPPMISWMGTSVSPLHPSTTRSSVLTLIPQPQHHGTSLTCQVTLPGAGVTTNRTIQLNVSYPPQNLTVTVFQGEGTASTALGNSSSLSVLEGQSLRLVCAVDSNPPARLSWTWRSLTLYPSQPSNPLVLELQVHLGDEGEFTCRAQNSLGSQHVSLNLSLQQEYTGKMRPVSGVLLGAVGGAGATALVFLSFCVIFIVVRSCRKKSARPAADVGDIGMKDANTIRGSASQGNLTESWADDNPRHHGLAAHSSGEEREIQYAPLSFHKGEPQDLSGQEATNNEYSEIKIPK
Experiment: FACS, human primary dendritic cells, 10 ug/ml mAb
Method: Initial characterization of Siglec-7 antibodies involved determining their ability to bind Siglec-7 expressed on human primary monocytes, human primary macrophages, human primary dendritic cells, human primary neutrophils, and human primary natural killer (NK) cells. Cells were harvested, plated at 10⁶/ml in a 96 well plate, and incubated in 100 ul PBS containing 2% FBS, 2 mM EDTA and 10 μg/ml Mab and Fc blocking reagent for 1 hour in ice. […]
State the answer as a number, implicitly in %.

binder	endpoint-result
anti-Siglec-7 antibody 4A1 (antibody, V domains shown, Variable domains assembled from FR and CDR entries) VH: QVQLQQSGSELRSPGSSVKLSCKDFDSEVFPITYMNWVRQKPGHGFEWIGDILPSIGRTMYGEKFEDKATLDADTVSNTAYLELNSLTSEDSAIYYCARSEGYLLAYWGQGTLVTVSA VL: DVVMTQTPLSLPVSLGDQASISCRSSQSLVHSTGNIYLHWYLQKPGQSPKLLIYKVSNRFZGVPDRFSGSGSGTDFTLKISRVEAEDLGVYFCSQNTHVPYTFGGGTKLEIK	99.7
anti-Siglec-7 antibody 7F12 (antibody, V domains shown, Variable domains assembled from FR and CDR entries) VH: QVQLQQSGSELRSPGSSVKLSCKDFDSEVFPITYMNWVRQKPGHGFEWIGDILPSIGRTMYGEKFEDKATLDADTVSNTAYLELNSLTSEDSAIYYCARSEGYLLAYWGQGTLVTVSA VL: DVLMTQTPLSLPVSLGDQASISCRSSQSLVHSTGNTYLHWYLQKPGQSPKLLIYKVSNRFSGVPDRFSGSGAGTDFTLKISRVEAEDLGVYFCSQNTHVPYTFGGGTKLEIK	99.7
anti-Siglec-7 antibody 10B5 (antibody, V domains shown, that light chain holds several Z and differs in its CDRs from S7-10B5.1 / 10B5L1; also called S7-10B5; mAb S7-10B5) VH: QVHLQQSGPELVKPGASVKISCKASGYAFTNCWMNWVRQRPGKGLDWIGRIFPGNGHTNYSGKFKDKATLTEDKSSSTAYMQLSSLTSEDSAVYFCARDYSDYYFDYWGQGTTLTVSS VL: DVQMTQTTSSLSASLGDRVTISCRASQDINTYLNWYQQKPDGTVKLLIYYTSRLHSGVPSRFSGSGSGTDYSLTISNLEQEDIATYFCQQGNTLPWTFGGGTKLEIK	99.6
anti-Siglec-7 antibody 1A12 (antibody, V domains shown, also called 1Al2) VH: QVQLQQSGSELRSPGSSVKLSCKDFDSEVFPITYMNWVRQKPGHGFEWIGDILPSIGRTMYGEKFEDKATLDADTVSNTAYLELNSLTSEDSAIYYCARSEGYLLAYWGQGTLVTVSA VL: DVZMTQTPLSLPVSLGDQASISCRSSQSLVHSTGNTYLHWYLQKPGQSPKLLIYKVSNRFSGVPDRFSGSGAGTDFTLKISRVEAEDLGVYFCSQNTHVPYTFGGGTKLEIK	99.7

query: Requested read-out: % Positive. Entry: anti-Siglec-7 antibody 10G8 (antibody, V domains shown, Variable domains assembled from FR and CDR entries) VH: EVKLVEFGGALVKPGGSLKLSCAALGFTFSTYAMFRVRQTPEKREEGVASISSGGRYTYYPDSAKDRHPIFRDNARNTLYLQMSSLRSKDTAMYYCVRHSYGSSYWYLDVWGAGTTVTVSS VL: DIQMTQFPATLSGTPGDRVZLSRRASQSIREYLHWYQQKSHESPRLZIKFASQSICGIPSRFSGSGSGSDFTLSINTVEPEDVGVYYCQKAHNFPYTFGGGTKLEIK
result: 99.5

Taken from patent US20200277374A1.
